SYSTEM: Human IP6K1 (Homo sapiens, UniProt Q92551)
Construct: GST (N, cleaved yes); made in house; host or cells: C43 E. coli, pGEX-6P-2
Sequence (Q92551 whole entry): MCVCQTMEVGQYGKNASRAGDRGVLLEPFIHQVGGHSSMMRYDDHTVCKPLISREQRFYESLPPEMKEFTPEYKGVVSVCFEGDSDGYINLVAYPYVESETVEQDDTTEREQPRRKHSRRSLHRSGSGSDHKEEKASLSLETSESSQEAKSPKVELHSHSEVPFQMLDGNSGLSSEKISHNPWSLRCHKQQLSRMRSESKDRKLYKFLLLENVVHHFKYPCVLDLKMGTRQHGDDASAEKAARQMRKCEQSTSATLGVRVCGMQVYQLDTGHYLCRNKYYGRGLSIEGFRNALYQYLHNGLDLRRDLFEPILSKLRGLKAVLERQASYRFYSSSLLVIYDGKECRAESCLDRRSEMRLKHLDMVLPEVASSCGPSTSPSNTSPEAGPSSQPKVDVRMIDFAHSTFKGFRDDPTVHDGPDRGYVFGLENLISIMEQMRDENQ
ASSAY PROCEDURE: IP6K1 high-throughput screen of the Sigma LOPAC (ADP-Glo Max, single point);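 note: final compound concentration 10µM in 5% DMSO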
Assay type: biochemical
CONDITION DESCRIPTION: LOPAC single-point screen; Z-score from raw signal with plate average and StDev
Would you kindly list Z-score for each of these compounds?
Lab note: jot the number down without any unit.

Ask | What measured Z-score goes with O=C(O)C1CCNCC1 ?
Reply | -0.4314

Ask | What measured Z-score goes with O=C(N[C@@H](Cc1ccccc1)C(=O)CCl)OCc1ccccc1 ?
Reply | -0.288

Ask | What measured Z-score goes with OC[C@H]1O[C@@H](n2cnc3c(Nc4ccccc4)ncnc32)[C@H](O)[C@@H]1O ?
Reply | -0.194
